Target: 5-HT1F receptor (Homo sapiens, UniProt P30939)
Sequence (P30939 whole entry): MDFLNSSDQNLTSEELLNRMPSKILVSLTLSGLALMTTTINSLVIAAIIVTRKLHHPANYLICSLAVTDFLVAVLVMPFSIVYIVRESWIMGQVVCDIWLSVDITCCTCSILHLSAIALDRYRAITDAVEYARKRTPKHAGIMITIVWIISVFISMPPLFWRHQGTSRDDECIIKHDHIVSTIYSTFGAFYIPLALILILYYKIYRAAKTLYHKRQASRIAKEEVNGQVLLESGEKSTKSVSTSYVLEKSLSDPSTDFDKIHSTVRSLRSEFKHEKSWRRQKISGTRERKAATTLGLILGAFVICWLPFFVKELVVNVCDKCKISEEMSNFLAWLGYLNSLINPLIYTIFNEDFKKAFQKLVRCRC
Assay: [3H]5-HT displacement binding to clonal 5-HT1F cell membranes (transfected Ltk- cells)
Parameters: The entire coding region of clone hl16a was cloned into the eukaryotic expression vector pcEXV-3; expressed in transfected cells
Below: a set of entries, each annotated with reported Ki.
Assay Readout: Ki (nM)

Molecule	Test System	Result
CN1C[C@H](C(=O)N[C@]2(C)O[C@@]3(O)[C@@H]4CCCN4C(=O)[C@H](Cc4ccccc4)N3C2=O)C[C@@H]2c3cccc4[nH]cc(c34)C[C@H]21 [Dihydroergotamine]	5-HT1F receptor (Homo sapiens, UniProt P30939)	276
CC(C)NCC(O)COc1cccc2ccccc12 (stereo not drawn)	5-HT1F receptor (Homo sapiens, UniProt P30939)	8710
Cc1nc2sccn2c(=O)c1CCN1CCC(=C(c2ccc(F)cc2)c2ccc(F)cc2)CC1	5-HT1F receptor (Homo sapiens, UniProt P30939)	3520
COc1ccc2[nH]cc(CCN)c2c1	5-HT1F receptor (Homo sapiens, UniProt P30939)	1120
CN1CCc2cc(Cl)c(O)cc2[C@@H](c2ccccc2)C1	5-HT1F receptor (Homo sapiens, UniProt P30939)	1490
CC(N)Cc1c[nH]c2ccc(O)cc12 (stereo not drawn)	5-HT1F receptor (Homo sapiens, UniProt P30939)	184
NCCc1c[nH]c2ccc(OCc3ccccc3)cc12	5-HT1F receptor (Homo sapiens, UniProt P30939)	1490
NCCc1c[nH]c2ccc(F)cc12	5-HT1F receptor (Homo sapiens, UniProt P30939)	1810
